Data origin, for the record: paper PMC9607427

Below, each of the compounds is paired with its reported >G2/M, % of Total Cellular Populations value.
# Test system: CCRF-CEM lymphoblasts
# test: Cell cycle and apoptosis analysis (propidium iodide flow cytometry)
# Type: cell-based, human
# measurement context: 24 h, 5 × IC50 (second value of cell)
Hi! Could you send only the number? It should be in %, unit omitted.

{"chemical smiles": "COc1ccc(OC)c(C(=O)OCCS(=O)(=O)c2cc[n+]([O-])c3cc(Cl)ccc23)c1", "result unit": "%", ">G2/M, % of Total Cellular Populations": 7.13}
{"chemical smiles": "O=C(OCCS(=O)(=O)c1cc[n+]([O-])c2cc(Cl)ccc12)c1ccc(C(F)(F)F)cc1", "result unit": "%", ">G2/M, % of Total Cellular Populations": 13.12}

Could you now consider this next compound?
Q: Data request, read-out >G2/M, % of Total Cellular Populations, for COc1ccc(C(=O)OCCS(=O)(=O)c2cc[n+]([O-])c3cc(Cl)ccc23)cc1[N+](=O)[O-]
A: 12.52
